Value source: patent US11065253B2

Below is a list of entries, each paired with its recorded pIC50 value.
Test system: phospho-serine 2056 DNA-PK in HCT116 cells
protocol.details: DNA-PK phosphorylation at serine 2056 (cellular), ELISA in bleomycin-treated HCT116 cells
Type: cell-based
stated.conditions: Homo sapiens, HCT-116, 6 h, cellular; HCT116 cells, 10 μM bleomycin, six hours; read-out: IC50 pDNA-PK
pIC50: −log10 of the molar value.

These solved cases illustrate the format of a correct answer.
| compound | pIC50 |
| --- | --- |
| OC(c1cnccn1)c1cc(-c2ncnc3cc(N4CCOCC4)ccc23)c(F)cc1Cl (centres unmarked) | 5.00 to 5.30 |
| COc1ccc([C@H](O)c2ccc(F)c(-c3ncnc4cc(N5CCOCC5)ccc34)c2)nn1 | 5.30 to 6.30 |
| COc1cc(C(O)c2ccc(F)c(-c3ncnc4cc(N5CCOCC5)ccc34)c2)c(Cl)nn1 (centres unmarked) | > 6.30 |

Query: Could you tell me which pIC50 is on file for NC(=O)Cn1nc(C(O)c2cc(-c3ncnc4cc(N5CCOCC5)ccc34)c(F)cc2Cl)ccc1=O (centres unmarked) ?
Response: 4.52 to 5.00

Query: Would you kindly repeat that for OC(c1ccc(F)c(-c2ncnc3cc(N4CCOCC4)ccc23)c1)c1ncccc1C(F)(F)F (centres unmarked) ?
Response: 5.30 to 6.30

---

Test system: phospho-serine 2056 DNA-PK in HCT116 cells
protocol.details: DNA-PK phosphorylation at serine 2056 (cellular), ELISA in bleomycin-treated HCT116 cells
Format: cell-based
stated.conditions: Homo sapiens, HCT-116, phospho-serine 2056 DNA-PK, bleomycin-treated HCT116 cells; class symbols A-D; read-out: IC50 pDNA-PK
pIC50: −log10 of the molar value.
Below is a list of entries, each paired with its recorded pIC50 value.

| compound | pIC50 |
| --- | --- |
| OC(c1ccc(OC2COC2)nn1)c1cc(-c2ncnc3cc(N4CCOCC4)ccc23)c(F)cc1Cl (stereo not shown) [Example 100] | > 6.30 |
| OC(c1cccnc1)c1cc(-c2ncnc3cc(N4CCOCC4)ccc23)c(F)cc1F (stereo not shown) [Example 217] | > 6.30 |
| OC(c1cccc(-c2ncnc3cc(N4CCOCC4)ccc23)c1)(c1nccs1)C(F)(F)F (stereo not shown) [Example 172] | 4.52 to 5.00 |

Now for the compound whose pIC50 we want.
Query: Could you tell me which pIC50 is on file for OC(c1ccc(F)c(-c2ncnc3cc(N4CCOCC4)sc23)c1)c1nccs1 (stereo not shown) [Example 145] ?
Response: 5.30 to 6.30

---

System: phospho-serine 2056 DNA-PK in HCT116 cells
protocol.details: DNA-PK phosphorylation at serine 2056 (cellular), ELISA in bleomycin-treated HCT116 cells
Type: cell-based
stated.conditions: Homo sapiens, HCT-116, 6 h, cellular; HCT116 cells, 10 μM bleomycin, six hours; read-out: IC50 pDNA-PK
quantity.measured: IC50

These solved cases illustrate the format of a correct answer.
| molecule | target.of.assay | IC50 |
| --- | --- | --- |
| Cn1nccc1C(O)c1ccc(F)c(-c2nc(Cl)nc3cc(N4CCOCC4)ccc23)c1 (centres unmarked) | phospho-serine 2056 DNA-PK in HCT116 cells | 10 to 30 µM |
| COc1ccnnc1C(O)c1ccc(F)c(-c2ncnc3cc(N4CCOCC4)ccc23)c1 (centres unmarked) | phospho-serine 2056 DNA-PK in HCT116 cells | 0.5 to 5 µM |

Query: Could you tell me which IC50 is on file for Cc1cnc(C)c(C(O)c2cc(-c3ncnc4cc(N5CCOCC5)ccc34)c(F)cc2F)n1 (centres unmarked) ?
Response: < 0.5 µM

Query: Would you kindly repeat that for OC(c1ccc(Cl)nn1)c1cc(-c2ncnc3cc(N4CCOCC4)ccc23)c(F)cc1Cl (centres unmarked) ?
Response: < 0.5 µM

Query: Would you kindly repeat that for OC(c1ccc(F)c(-c2ncnc3cc(N4CCOCC4)ccc23)c1)c1cnccn1 (centres unmarked) ?
Response: 10 to 30 µM

Query: Would you kindly repeat that for O[C@H](c1ccc(F)c(-c2ncnc3cc(N4CCOCC4)ccc23)c1)c1nccnc1Cl ?
Response: < 0.5 µM

Query: Would you kindly repeat that for COc1cnc(Cl)c(C(O)c2ccc(F)c(-c3ncnc4cc(N5CCOCC5)ccc34)c2)c1 (centres unmarked) ?
Response: < 0.5 µM

Query: Would you kindly repeat that for OC(c1ccc2nccn2n1)c1cc(-c2ncnc3cc(N4CCOCC4)ccc23)c(F)cc1Cl (centres unmarked) ?
Response: 0.5 to 5 µM

---

target.of.assay: UniProt:Q12809
Sequence (Q12809 whole entry): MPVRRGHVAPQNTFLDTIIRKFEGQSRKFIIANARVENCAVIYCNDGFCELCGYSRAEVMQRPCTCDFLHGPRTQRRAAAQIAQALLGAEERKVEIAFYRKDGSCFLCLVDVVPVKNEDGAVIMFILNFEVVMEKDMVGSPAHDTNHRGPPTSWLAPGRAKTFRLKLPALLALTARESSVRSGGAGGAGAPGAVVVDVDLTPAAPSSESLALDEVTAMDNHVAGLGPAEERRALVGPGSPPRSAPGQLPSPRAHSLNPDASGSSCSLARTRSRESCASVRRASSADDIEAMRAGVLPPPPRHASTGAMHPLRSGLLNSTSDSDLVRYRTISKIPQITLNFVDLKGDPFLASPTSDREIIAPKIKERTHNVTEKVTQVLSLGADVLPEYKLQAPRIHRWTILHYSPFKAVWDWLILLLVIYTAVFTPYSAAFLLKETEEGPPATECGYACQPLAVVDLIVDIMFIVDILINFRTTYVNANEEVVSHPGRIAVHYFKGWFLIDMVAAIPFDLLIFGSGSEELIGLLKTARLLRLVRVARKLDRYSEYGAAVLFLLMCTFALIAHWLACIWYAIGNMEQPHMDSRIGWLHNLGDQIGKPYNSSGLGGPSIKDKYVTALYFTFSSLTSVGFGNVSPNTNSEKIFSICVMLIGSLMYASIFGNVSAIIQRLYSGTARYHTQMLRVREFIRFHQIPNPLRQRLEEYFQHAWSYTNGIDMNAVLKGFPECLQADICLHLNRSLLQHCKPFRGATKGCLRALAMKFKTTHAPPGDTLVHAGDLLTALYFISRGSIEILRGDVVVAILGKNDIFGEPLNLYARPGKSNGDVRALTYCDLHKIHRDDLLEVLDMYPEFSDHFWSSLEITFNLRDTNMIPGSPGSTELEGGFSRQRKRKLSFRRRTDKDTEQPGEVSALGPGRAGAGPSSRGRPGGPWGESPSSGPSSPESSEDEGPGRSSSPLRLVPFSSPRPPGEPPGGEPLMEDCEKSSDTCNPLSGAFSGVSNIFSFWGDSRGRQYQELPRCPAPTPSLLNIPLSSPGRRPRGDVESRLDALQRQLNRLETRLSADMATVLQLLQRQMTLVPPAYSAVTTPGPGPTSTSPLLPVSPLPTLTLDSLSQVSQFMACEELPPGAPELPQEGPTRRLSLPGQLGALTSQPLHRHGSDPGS
protocol.details: Kv11.1 ion channel binding assay (Predictor hERG fluorescence polarisation)
stated.conditions: class symbol marked with asterisk (*)
quantity.measured: Ki [Kv1.11 hERG]

These solved cases illustrate the format of a correct answer.
| compound | result |
| --- | --- |
| COc1nccnc1C(O)c1ccc(F)c(-c2ncnc3cc(N4CCOCC4)cc(F)c23)c1 (centres unmarked) [Example 252] | A* |
| COc1nccnc1C(O)c1ccc(F)c(-c2ncnc3cc(N4CCOCC4)cc(F)c23)c1 (centres unmarked) [Example 267] | A* |
| COc1nccnc1C(O)c1cc(-c2ncnc3cc(N4CCOCC4)cc(F)c23)c(F)cc1Cl (centres unmarked) [Example 250] | A* |
| NC(=O)C(c1ccc(F)c(-c2ncnc3cc(N4CCOCC4)ccc23)c1)c1nccn2ncnc12 (centres unmarked) [Example 280] | A* |
| CNC(=O)C(c1ccc(F)c(-c2ncnc3cc(N4CCOCC4)ccc23)c1)c1ncccc1Cl (centres unmarked) [Example 230] | B* |

Query: Could you tell me which Ki [Kv1.11 hERG] is on file for Cc1nccnc1C(O)c1ccc(F)c(-c2ncnc3cc(N4CCOCC4)cc(F)c23)c1 (centres unmarked) [Example 268] ?
Response: A*

Query: Would you kindly repeat that for Cc1nccnc1C(C(N)=O)c1ccc(F)c(-c2ncnc3cc(N4CCOCC4)sc23)c1 (centres unmarked) [Example 270] ?
Response: A*

Query: Would you kindly repeat that for COc1ccc(C(O)c2ccc(F)c(-c3ncnc4cc(N5CCOCC5)c(F)cc34)c2)nn1 (centres unmarked) [Example 282] ?
Response: A*

---

System: phospho-serine 2056 DNA-PK in HCT116 cells
protocol.details: DNA-PK phosphorylation at serine 2056 (cellular), ELISA in bleomycin-treated HCT116 cells
Assay type: cell-based
stated.conditions: Homo sapiens, HCT-116, phospho-serine 2056 DNA-PK, bleomycin-treated HCT116 cells; class symbols A-D; read-out: IC50 pDNA-PK
pIC50: −log10 of the molar value.
quantity.measured: pIC50

Query: Could you tell me which pIC50 is on file for OC(c1ccc(F)c(-c2ncnc3cc(N4CCOCC4)sc23)c1)c1nccs1 (racemic) [Example 144] ?
Response: 5.30 to 6.30

Query: Would you kindly repeat that for COc1cc(C)c(C(O)c2cc(-c3ncnc4cc(N5CCOCC5)ccc34)c(F)cc2Cl)nn1 (centres unmarked) [Example 109] ?
Response: 5.00 to 5.30

Query: Would you kindly repeat that for COc1ccc(C(O)c2cc(-c3nc(Cl)nc4cc(N5CCOCC5)ccc34)c(F)cc2Cl)nn1 (centres unmarked) [Example 132] ?
Response: 5.30 to 6.30

Query: Would you kindly repeat that for N#Cc1ccc(C(O)c2cc(-c3ncnc4cc(N5CCOCC5)ccc34)c(F)cc2Cl)nn1 (centres unmarked) [Example 118] ?
Response: 5.30 to 6.30

Query: Would you kindly repeat that for OCc1csc(C(O)c2cc(-c3ncnc4cc(N5CCOCC5)ccc34)c(F)cc2Cl)n1 (centres unmarked) [Example 142] ?
Response: 5.30 to 6.30

Query: Would you kindly repeat that for COc1ccc(C(O)c2cc(-c3ncnc4cc(N5CCOCC5)ccc34)c(F)cc2F)nc1 (centres unmarked) [Example 224] ?
Response: 5.30 to 6.30

Query: Would you kindly repeat that for C#CC(O)(c1ccc(OC)nn1)c1cc(-c2ncnc3cc(N4CCOCC4)ccc23)c(F)cc1Cl (centres unmarked) [Example 122] ?
Response: 5.30 to 6.30

Query: Would you kindly repeat that for COc1ccc([C@H](O)c2cc(-c3ncnc4cc(N5CCOCC5)ccc34)c(F)cc2Cl)nn1 [Example 135] ?
Response: 4.52 to 5.00

---

System: phospho-serine 2056 DNA-PK in HCT116 cells
protocol.details: DNA-PK phosphorylation at serine 2056 (cellular), ELISA in bleomycin-treated HCT116 cells
Assay type: cell-based
stated.conditions: Homo sapiens, HCT-116, 6 h, cellular; HCT116 cells, 10 μM bleomycin, six hours; read-out: IC50 pDNA-PK
pIC50: −log10 of the molar value.
Below is a list of entries, each paired with its recorded pIC50 value.

| molecule | target.of.assay | quantity.measured | result |
| --- | --- | --- | --- |
| O=c1ccc(C(O)c2ccc(F)c(-c3ncnc4cc(N5CCOCC5)ccc34)c2)n[nH]1 (centres unmarked) [Example 76] | phospho-serine 2056 DNA-PK in HCT116 cells | pIC50 | 5.30 to 6.30 |
| OC(c1ccc(F)c(-c2ncnc3cc(N4CCOCC4)ccc23)c1)c1nccnc1N1CCCC1 (centres unmarked) [Example 14] | phospho-serine 2056 DNA-PK in HCT116 cells | pIC50 | 5.30 to 6.30 |
| COc1ccnnc1C(O)c1cc(-c2ncnc3cc(N4CCOCC4)ccc23)c(F)cc1Cl (centres unmarked) [Example 3] | phospho-serine 2056 DNA-PK in HCT116 cells | pIC50 | 5.30 to 6.30 |
| COc1nnc(C(O)c2cc(-c3ncnc4cc(N5CCOCC5)ccc34)c(F)cc2Cl)c2ccncc12 (centres unmarked) [Example 40] | phospho-serine 2056 DNA-PK in HCT116 cells | pIC50 | 5.30 to 6.30 |
| OC(c1ccnnc1)c1cc(-c2ncnc3cc(N4CCOCC4)ccc23)c(F)cc1Cl (centres unmarked) [Example 36] | phospho-serine 2056 DNA-PK in HCT116 cells | pIC50 | > 6.30 |

Query: Form: Entry = CN(C)c1ccc(C(O)c2ccc(F)c(-c3ncnc4cc(N5CCOCC5)ccc34)c2)nn1 (centres unmarked) [Example 68] | System = phospho-serine 2056 DNA-PK in HCT116 cells | pIC50 = ____
Response: 5.00 to 5.30

Query: Would you kindly repeat that for OC(c1cc(-c2ncnc3cc(N4CCOCC4)ccc23)c(F)cc1F)c1ncnc2sccc12 (centres unmarked) [Example 90] ?
Response: > 6.30

Query: Would you kindly repeat that for CCn1nc(C(O)c2cc(-c3ncnc4cc(N5CCOCC5)ccc34)c(F)cc2Cl)ccc1=O (centres unmarked) [Example 93] ?
Response: > 6.30

Query: Would you kindly repeat that for COc1nccnc1C(O)c1ccc(F)c(-c2ncnc3cc(N4CCOCC4)ccc23)c1 (centres unmarked) [Example 15] ?
Response: > 6.30

Query: Would you kindly repeat that for Cc1cnnc(C(O)c2cc(-c3ncnc4cc(N5CCOCC5)ccc34)c(F)cc2Cl)c1 (centres unmarked) [Example 46] ?
Response: 5.00 to 5.30

Query: Would you kindly repeat that for Cc1nccnc1C(O)c1ccc(F)c(-c2ncnc3cc(N4CCOCC4)ccc23)c1 (centres unmarked) [Example 78] ?
Response: > 6.30

Query: Would you kindly repeat that for COc1cncnc1C(O)c1ccc(F)c(-c2ncnc3cc(N4CCOCC4)ccc23)c1 (centres unmarked) [Example 87] ?
Response: > 6.30

Query: Would you kindly repeat that for CC(C)(C)Oc1nccnc1C(O)c1ccc(F)c(-c2ncnc3cc(N4CCOCC4)ccc23)c1 (centres unmarked) [Example 13] ?
Response: 4.52 to 5.00

Query: Would you kindly repeat that for OC(c1ccc(F)c(-c2ncnc3cc(N4CCOCC4)ccc23)c1)c1c(Cl)cncc1Cl (centres unmarked) [Example 17] ?
Response: 5.30 to 6.30

Query: Would you kindly repeat that for OC(c1ccc(F)c(-c2ncnc3cc(N4CCOCC4)ccc23)c1)c1c(F)cncc1F (centres unmarked) [Example 1] ?
Response: 5.30 to 6.30

Query: Would you kindly repeat that for COc1cnc(C(O)c2ccc(F)c(-c3ncnc4cc(N5CCOCC5)ccc34)c2)c(Cl)c1 (centres unmarked) [Example 31] ?
Response: > 6.30

Query: Would you kindly repeat that for OC(c1ccc(F)c(-c2ncnc3cc(N4CCOCC4)ccc23)c1)c1nccnc1OC1COC1 (centres unmarked) [Example 32] ?
Response: 5.00 to 5.30
